Entry source: the supplement of paper PMC9112550

system: Escherichia coli TOP10; experiment: shrunken log2 fold change of peptide-encoding DNA abundance (4.5 h post-induction vs induction); higher = less antimicrobial activity (less host growth inhibition); conditions: time post-induction: 4.5 h; library: site-saturation at positions 5, 18, 19, 20
observation type: shrunken log2 fold change
Answers are plain numbers.

Give one value of shrunken log2 fold change per listed sequence.
1. RRIRKRPPRLPRPRPRPPNCPRP
2. RRIRRRPPRLPRPRPRPANSPRP
3. RRIRHRPPRLPRPRPRPFITPRP
4. RRIRLRPPRLPRPRPRPGFAPRP
5. RRIRSRPPRLPRPRPRPYLHPRP

Response:
[0.0388, 0.0678, -0.799, 0.36, -0.757]

Prompt: Consider the sequence shown here: RRIRMRPPRLPRPRPRPLRWPRP What is its recorded shrunken log2 fold change?
Response: 1.32

* * *

Exercise: state measured shrunken log2 fold change for each of the sequences provided.
tested on: Escherichia coli TOP10; assay: shrunken log2 fold change of peptide-encoding DNA abundance (4.5 h post-induction vs induction); higher = less antimicrobial activity (less host growth inhibition); details: time post-induction: 4.5 h; library: site-saturation at positions 5, 18, 19, 20
Answers are plain numbers.

Please state, for each entry, its recorded shrunken log2 fold change.
1. RRIRLRPPRLPRPRPRPYLIPRP
2. RRIRERPPRLPRPRPRPMMVPRP
3. RRIRSRPPRLPRPRPRPSHRPRP

Response:
1. -0.274
2. 0.0544
3. -0.41

* * *

test system: Escherichia coli TOP10; assay: shrunken log2 fold change of peptide-encoding DNA abundance (4.5 h post-induction vs induction); higher = less antimicrobial activity (less host growth inhibition); details: time post-induction: 4.5 h; library: site-saturation at positions 5, 18, 19, 20
Consider the following sequences; for each one, report its shrunken log2 fold change.
One number for each entry.

- RRIRSRPPRLPRPRPRPIFTPRP: -0.275
- RRIRGRPPRLPRPRPRPQNFPRP: 0.136
- RRIRTRPPRLPRPRPRPLYCPRP: -0.715
- RRIRRRPPRLPRPRPRPEATPRP: 2.74
- RRIRERPPRLPRPRPRPDLIPRP: -0.0979

Next sequence, please.
Prompt: Form entry - test system: Escherichia coli TOP10; read-out: shrunken log2 fold change; sequence: RRIRMRPPRLPRPRPRPSSEPRP
Response: -0.103

* * *

tested on: Escherichia coli TOP10; test: shrunken log2 fold change of peptide-encoding DNA abundance (4.5 h post-induction vs induction); higher = less antimicrobial activity (less host growth inhibition); conditions: time post-induction: 4.5 h; library: site-saturation at positions 5, 18, 19, 20
observation type: shrunken log2 fold change
One number for each entry.

• RRIRKRPPRLPRPRPRPGEAPRP = 1.09

// each sequence listed below needs its shrunken log2 fold change
1. RRIRVRPPRLPRPRPRPDVFPRP
2. RRIRCRPPRLPRPRPRPRGPPRP
3. RRIRERPPRLPRPRPRPKKWPRP

Response:
1: -0.0779; 2: 0.816; 3: 2.71

// each listed sequence needs a value for shrunken log2 fold change
1. RRIRQRPPRLPRPRPRPPGWPRP
2. RRIRQRPPRLPRPRPRPLHMPRP
3. RRIRQRPPRLPRPRPRPLHVPRP

Response:
1: -0.0951; 2: -0.384; 3: -0.324

Prompt: Short answer please: shrunken log2 fold change, Escherichia coli TOP10, entry RRIRVRPPRLPRPRPRPDNCPRP
Response: -0.0588

* * *

tested on: Escherichia coli TOP10; assay: shrunken log2 fold change of peptide-encoding DNA abundance (4.5 h post-induction vs induction); higher = less antimicrobial activity (less host growth inhibition); settings: time post-induction: 4.5 h; library: site-saturation at positions 5, 18, 19, 20
observation type: shrunken log2 fold change
One number for each entry.

Consider the worked cases shown below.
* RRIRRRPPRLPRPRPRPKVQPRP | -0.0356
* RRIRTRPPRLPRPRPRPLRIPRP | 0.00602
* RRIRVRPPRLPRPRPRPRGNPRP | 0.378

Look at each sequence and report its shrunken log2 fold change.
1. RRIRNRPPRLPRPRPRPKSGPRP
2. RRIRVRPPRLPRPRPRPNQYPRP
3. RRIRMRPPRLPRPRPRPVSPPRP
4. RRIRVRPPRLPRPRPRPQECPRP

Response:
[0.161, -0.864, 0.418, -0.00813]

* * *

system: Escherichia coli TOP10; test: shrunken log2 fold change of peptide-encoding DNA abundance (4.5 h post-induction vs induction); higher = less antimicrobial activity (less host growth inhibition); conditions: time post-induction: 4.5 h; library: site-saturation at positions 5, 18, 19, 20
Short version: shrunken log2 fold change at least -0.09 is 1.0, less is 0.0.

- RRIRERPPRLPRPRPRPAMRPRP: 1.0
- RRIRWRPPRLPRPRPRPHFLPRP: 1.0
- RRIRFRPPRLPRPRPRPAQQPRP: 1.0
- RRIRQRPPRLPRPRPRPNPHPRP: 1.0
- RRIRSRPPRLPRPRPRPKFSPRP: 1.0
- RRIRDRPPRLPRPRPRPPDTPRP: 1.0
- RRIRWRPPRLPRPRPRPQLVPRP: 1.0
- RRIRHRPPRLPRPRPRPRGSPRP: 1.0
- RRIRARPPRLPRPRPRPRSVPRP: 1.0
- RRIRERPPRLPRPRPRPHGLPRP: 0.0

Prompt: Could you tell me if the measured shrunken log2 fold change of RRIRVRPPRLPRPRPRPLNCPRP reaches -0.09 or more?
Response: 0.0

Prompt: Another: RRIRMRPPRLPRPRPRPFGCPRP
Response: 1.0

Prompt: Try this sequence too: RRIRWRPPRLPRPRPRPCESPRP
Response: 1.0

Prompt: And for RRIRDRPPRLPRPRPRPNVTPRP ?
Response: 0.0

Prompt: Next sequence: RRIRMRPPRLPRPRPRPYMAPRP
Response: 0.0

Prompt: Please give the result for RRIRSRPPRLPRPRPRPKYVPRP too.
Response: 0.0

Prompt: Also need RRIRFRPPRLPRPRPRPGAYPRP , thanks.
Response: 1.0

Prompt: Would you kindly repeat that for RRIRERPPRLPRPRPRPHSVPRP ?
Response: 1.0

Prompt: Next: RRIRLRPPRLPRPRPRPAMYPRP
Response: 0.0

Prompt: Note, next up: RRIRLRPPRLPRPRPRPLFHPRP
Response: 0.0

Prompt: Param item: RRIRGRPPRLPRPRPRPAWYPRP
Response: 1.0

Prompt: Field entry: RRIRWRPPRLPRPRPRPCIYPRP
Response: 0.0

Prompt: One more sequence: RRIRSRPPRLPRPRPRPCDFPRP
Response: 0.0

Prompt: Now this one: RRIRSRPPRLPRPRPRPEDLPRP
Response: 1.0

Prompt: Entry to check: RRIRPRPPRLPRPRPRPSYQPRP
Response: 0.0

* * *

tested on: Escherichia coli TOP10; test: shrunken log2 fold change of peptide-encoding DNA abundance (4.5 h post-induction vs induction); higher = less antimicrobial activity (less host growth inhibition); settings: time post-induction: 4.5 h; library: site-saturation at positions 5, 18, 19, 20
observation type: shrunken log2 fold change
Numbers only.

Look over these answered cases.
- RRIRKRPPRLPRPRPRPSFSPRP: -0.0191
- RRIRMRPPRLPRPRPRPTKPPRP: 0.0618
- RRIRDRPPRLPRPRPRPMRSPRP: -0.00884
- RRIRARPPRLPRPRPRPTWYPRP: -0.00985
- RRIRQRPPRLPRPRPRPCMQPRP: -0.238
- RRIRLRPPRLPRPRPRPFAIPRP: 0.0494
- RRIRHRPPRLPRPRPRPLVSPRP: 0.0121
- RRIRGRPPRLPRPRPRPAGAPRP: 1.16

For each listed entry, give its shrunken log2 fold change.
1. RRIRDRPPRLPRPRPRPYVEPRP
2. RRIRTRPPRLPRPRPRPKYQPRP

Response:
[-0.125, -0.68]

* * *

tested on: Escherichia coli TOP10; assay: shrunken log2 fold change of peptide-encoding DNA abundance (4.5 h post-induction vs induction); higher = less antimicrobial activity (less host growth inhibition); details: time post-induction: 4.5 h; library: site-saturation at positions 5, 18, 19, 20;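 also: peptides expressed intracellularly from a pBAD plasmid library in pooled LB shake-flask culture, induced with 0.3% L-arabinose, DNA abundance read by NGS, three biological replicates, DESeq2 with apeglm shrinkage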
observation type: shrunken log2 fold change
Give bare numbers.

For every item below, please supply its shrunken log2 fold change.
1. RRIRHRPPRLPRPRPRPHLVPRP
2. RRIRYRPPRLPRPRPRPQCEPRP
3. RRIRARPPRLPRPRPRPYGAPRP

Response:
1: -0.18; 2: -0.0652; 3: -0.206

Below is a list of sequences. For each, state its recorded shrunken log2 fold change.
1. RRIRQRPPRLPRPRPRPSYHPRP
2. RRIRFRPPRLPRPRPRPYKYPRP

Response:
[-0.178, -0.907]

Would you be so kind as to report shrunken log2 fold change for each listed record?
1. RRIRCRPPRLPRPRPRPWVEPRP
2. RRIRYRPPRLPRPRPRPYDSPRP

Response:
-0.689
-0.0285
